The reported numbers originate from patent US20240208968A1.

molecular target: αvβ1 (Homo sapiens, UniProt P05556+P06756); assay: Solid Phase Integrin αvβ1 Assay
Sequence (P06756 31-992 limits assumed): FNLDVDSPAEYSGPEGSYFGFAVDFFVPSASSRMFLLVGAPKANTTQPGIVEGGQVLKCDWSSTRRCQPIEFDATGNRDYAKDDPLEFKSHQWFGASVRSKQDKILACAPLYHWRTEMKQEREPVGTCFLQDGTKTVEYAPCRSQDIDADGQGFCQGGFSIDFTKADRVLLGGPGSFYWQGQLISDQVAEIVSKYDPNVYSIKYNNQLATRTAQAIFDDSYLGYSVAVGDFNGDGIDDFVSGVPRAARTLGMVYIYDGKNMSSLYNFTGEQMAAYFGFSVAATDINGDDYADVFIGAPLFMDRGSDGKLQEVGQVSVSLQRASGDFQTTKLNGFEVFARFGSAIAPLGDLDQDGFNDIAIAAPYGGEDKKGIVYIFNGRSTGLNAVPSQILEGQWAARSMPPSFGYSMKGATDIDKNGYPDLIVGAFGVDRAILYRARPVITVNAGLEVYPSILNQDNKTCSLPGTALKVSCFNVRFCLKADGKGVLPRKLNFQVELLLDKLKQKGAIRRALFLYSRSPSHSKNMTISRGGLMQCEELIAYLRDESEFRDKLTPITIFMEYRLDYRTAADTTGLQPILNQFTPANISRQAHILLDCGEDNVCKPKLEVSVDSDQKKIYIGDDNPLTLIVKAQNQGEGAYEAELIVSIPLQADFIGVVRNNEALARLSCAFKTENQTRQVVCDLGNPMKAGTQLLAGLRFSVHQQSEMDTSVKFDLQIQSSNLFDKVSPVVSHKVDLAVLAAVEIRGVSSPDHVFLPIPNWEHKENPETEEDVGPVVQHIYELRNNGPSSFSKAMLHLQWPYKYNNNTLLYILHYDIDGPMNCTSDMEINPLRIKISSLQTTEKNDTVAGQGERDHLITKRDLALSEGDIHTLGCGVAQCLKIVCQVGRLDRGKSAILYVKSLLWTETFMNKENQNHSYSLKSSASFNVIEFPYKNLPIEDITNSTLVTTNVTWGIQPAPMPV
Sequence (P05556 21-728 limits assumed): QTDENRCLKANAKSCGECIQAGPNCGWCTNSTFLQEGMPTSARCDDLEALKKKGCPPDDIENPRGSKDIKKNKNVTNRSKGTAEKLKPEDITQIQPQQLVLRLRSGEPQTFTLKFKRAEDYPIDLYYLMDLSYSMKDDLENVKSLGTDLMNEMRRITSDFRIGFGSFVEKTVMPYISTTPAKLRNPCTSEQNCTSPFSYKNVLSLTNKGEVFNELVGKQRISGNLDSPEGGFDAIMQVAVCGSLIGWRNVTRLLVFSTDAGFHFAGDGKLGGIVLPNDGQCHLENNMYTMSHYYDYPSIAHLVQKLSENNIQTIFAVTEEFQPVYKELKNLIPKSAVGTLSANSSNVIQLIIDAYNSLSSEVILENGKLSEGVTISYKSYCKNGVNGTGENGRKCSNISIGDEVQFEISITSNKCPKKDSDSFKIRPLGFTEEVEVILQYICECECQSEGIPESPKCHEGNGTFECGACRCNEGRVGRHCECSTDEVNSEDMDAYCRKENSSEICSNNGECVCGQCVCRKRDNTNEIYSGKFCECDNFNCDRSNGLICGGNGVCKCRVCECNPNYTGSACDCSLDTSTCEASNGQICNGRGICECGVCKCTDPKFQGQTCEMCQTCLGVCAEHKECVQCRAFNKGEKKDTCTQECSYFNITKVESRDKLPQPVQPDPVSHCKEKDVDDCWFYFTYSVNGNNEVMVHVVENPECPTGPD
pIC50: −log10 of the molar value.
metricName: pIC50

molecule: O=C(NC[C@H](C(=O)O)c1cccc2nn(CC3CC3)cc12)[C@@H]1CCCN(CCCc2ccc3c(n2)NCCC3)C1 [Compound 317]
pIC50: > 7.00

Find the measured pIC50 of Cc1cc(C)n(-c2cccc([C@H](CO[C@@H]3CCCN(CCCc4ccc5c(n4)NCCC5)C3)CC(=O)O)c2)n1 [Compound 575] with αvβ1 (Homo sapiens, UniProt P05556+P06756) as test system.
6.00 to 7.00

Find the measured pIC50 of O=C(N[C@H](CCO[C@@H]1CCCN(CCCc2ccc3c(n2)NCCC3)C1)C(=O)O)c1ccccc1 [Compound 479] with αvβ1 (Homo sapiens, UniProt P05556+P06756) as test system.
6.00 to 7.00

---

biological target: αvβ6 (Homo sapiens, UniProt P06756+P18564); assay: Solid Phase Integrin αvβ6 Assay; assay type: binding
Sequence (P06756 31-992 limits assumed): as the sequence (P06756 31-992 limits assumed) above
Sequence (P18564 22-707 limits assumed): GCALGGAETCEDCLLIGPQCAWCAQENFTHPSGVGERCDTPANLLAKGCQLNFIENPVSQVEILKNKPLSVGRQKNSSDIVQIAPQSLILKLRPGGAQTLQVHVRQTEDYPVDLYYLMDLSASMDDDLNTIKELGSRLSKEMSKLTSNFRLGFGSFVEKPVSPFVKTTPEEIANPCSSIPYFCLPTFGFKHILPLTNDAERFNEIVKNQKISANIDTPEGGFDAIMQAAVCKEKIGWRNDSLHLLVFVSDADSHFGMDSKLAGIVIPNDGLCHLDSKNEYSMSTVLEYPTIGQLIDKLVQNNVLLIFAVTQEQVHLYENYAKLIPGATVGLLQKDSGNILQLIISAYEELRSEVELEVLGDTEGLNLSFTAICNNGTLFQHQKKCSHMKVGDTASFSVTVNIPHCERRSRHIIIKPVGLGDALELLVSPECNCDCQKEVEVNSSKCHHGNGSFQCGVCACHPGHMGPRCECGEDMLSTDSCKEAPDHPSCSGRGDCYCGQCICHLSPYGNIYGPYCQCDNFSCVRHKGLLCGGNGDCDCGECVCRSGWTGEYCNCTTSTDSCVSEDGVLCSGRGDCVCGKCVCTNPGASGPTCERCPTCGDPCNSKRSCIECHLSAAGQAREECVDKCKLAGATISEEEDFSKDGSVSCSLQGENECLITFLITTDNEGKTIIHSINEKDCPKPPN
pIC50: −log10 of the molar value.
metricName: pIC50

Observe how each entry below is paired with its result.
molecule: O=C(O)C[C@@H](CO[C@@H]1CCCN(CCCc2ccc3c(n2)NCCC3)C1)c1cccc([C@H]2CCOC2)c1
pIC50: > 7.00

molecule: O=C(CC[C@H](NC(=O)C12CCC(CC1)CC2)C(=O)O)N[C@H]1CCN(CCCCc2ccc3c(n2)NCCC3)C1
pIC50: > 7.00

molecule: O=C(NC[C@H](C(=O)O)c1cccc2cn([C@H]3CCC(F)(F)C3)nc12)[C@@H]1CCCN(CCCc2ccc3c(n2)NCCC3)C1
pIC50: > 7.00

molecule: O=C(O)C[C@@H](NC(=O)[C@@H]1CCCN(CCCc2ccc3c(n2)NCCC3)C1)c1cccc(Oc2ccccc2)c1
pIC50: 6.00 to 7.00

Give the value of pIC50 reported for the following: O=C(O)C[C@H](CO[C@@H]1CCCN(CCCc2ccc3c(n2)NCCC3)C1)c1cncc(C2CC2)c1
> 7.00

Give the value of pIC50 reported for the following: O=C(O)[C@@H](CO[C@@H]1CCCN(CCCCc2ccc3c(n2)NCCC3)C1)c1ccccc1
< 6.00

Give the value of pIC50 reported for the following: O=C(N[C@@H](CNC(=O)[C@@H]1CCCN(CCCc2ccc3c(n2)NCCC3)C1)C(=O)O)c1cccc(Cl)c1
> 7.00

---

target: αvβ6 (Homo sapiens, UniProt P06756+P18564); experiment: Solid Phase Integrin αvβ6 Assay
Listing: IC50 of selected molecules

Find the measured IC50 of O=C(NC[C@@H](Nc1ccc(-c2ccccc2)nc1)C(=O)O)[C@@H]1CCCN(CCCc2ccc3c(n2)NCCC3)C1 with αvβ6 (Homo sapiens, UniProt P06756+P18564) as test system.
< 100 nM

---

target: αvβ6 (Homo sapiens, UniProt P06756+P18564); experiment: Solid Phase Integrin αvβ6 Assay
pIC50: −log10 of the molar value.
metricName: pIC50

compound: CC1(C)CN(c2cc([C@@H](CO[C@@H]3CCCN(CCCc4ccc5c(n4)NCCC5)C3)CC(=O)O)ccc2Cl)CCO1
pIC50: > 7.00

compound: O=C(O)[C@@H](CCO[C@H]1CCCN(CCCc2ccc3c(n2)NCCC3)C1)NC(=O)C12CCC(CC1)CC2
pIC50: 6.00 to 7.00

compound: O=C(N[C@H](CCO[C@@H]1CCCN(CCCc2ccc3c(n2)NCCC3)C1)C(=O)O)c1c(F)cccc1F
pIC50: 6.00 to 7.00

compound: O=C(N[C@@H](CNC(=O)[C@@H]1CCCN(CCCc2ccc3c(n2)NCCC3)C1)C(=O)O)c1c(F)cc(N2CCOC[C@@H]2C(F)(F)F)cc1F
pIC50: > 7.00

Give the value of pIC50 reported for the following: O=C(O)[C@@](O)(CO[C@@H]1CCCN(CCCc2ccc3c(n2)NCCC3)C1)c1ccccc1
< 6.00

---

Target: αvβ6 (Homo sapiens, UniProt P06756+P18564)
Test: Solid Phase Integrin αvβ6 Assay
Experimental: The compounds exemplified in this document were tested for their ability to inhibit αvβ1 and αvβ6 in below described solid phase integrin assays. Solid Phase Integrin αvβ6 Assay 96-well microtiter plates (4 HBX Immulon; Thermo Fisher Scientific, Waltham, MA) were coated with 100 μL/well of 1 μg/mL recombinant TGFb1-LAP in TBS at 4° C., overnight. […] Bound protein was detected using the substrate TMB. […]
Where a name gives a salt, the structure may show the parent alone.
metricName: IC50

Observe how each entry below is paired with its result.
compound: O=C(O)[C@H](CCO[C@@H]1CCCN(CCCCc2ccc3c(n2)NCCC3)C1)Nc1ncnc2ccccc12
IC50: 100 to 1000 nM
//
compound: O=C(O)[C@H](CCO[C@@H]1CCCN(Cc2ccc3c(n2)NCCC3)C1)Nc1ncnc2ccccc12
IC50: 100 to 1000 nM
//
compound: O=C(O)C[C@H](NC(=O)[C@@H]1CCCN(CCCc2ccc3c(n2)NCCC3)C1)c1ccccc1 [Compound 202, hydrochloride]
IC50: < 100 nM

# input for lookup
Find the measured IC50 of C[C@@H]1OCCN(c2cccc([C@H](CC(=O)O)NC(=O)[C@@H]3CCCN(CCCc4ccc5c(n4)NCCC5)C3)c2)[C@@H]1C with αvβ6 (Homo sapiens, UniProt P06756+P18564) as test system.
< 100 nM

---

Listing: IC50 of selected compounds
molecular target: αvβ6 (Homo sapiens, UniProt P06756+P18564); experiment: Solid Phase Integrin αvβ6 Assay

Observe how each entry below is paired with its result.
compound: O=C(O)C[C@H](NC(=O)[C@@H]1CCCN(CCCc2ccc3c(n2)NCCC3)C1)c1ccc(C2CC2)cc1
experimentalValue: 100 to 1000 nM
//
compound: C[C@@H]1C[C@H](C(=O)NC[C@@H](C(=O)O)c2ccc3ccccc3c2)CN(CCCc2ccc3c(n2)NCCC3)C1
experimentalValue: 100 to 1000 nM
//
compound: CC1(C)COCCN1c1cccc([C@@H](CNC(=O)[C@@H]2CCCN(CCCc3ccc4c(n3)NCCC4)C2)C(=O)O)c1
experimentalValue: < 100 nM
//
compound: O=C(O)CC(CO[C@@H]1CCCN(CCc2ccc3c(n2)NCCC3)C1)c1ccccc1 (some centres unmarked)
experimentalValue: 100 to 1000 nM
//
compound: O=C(CC[C@@H](NC(=O)[C@H]1CCCN1S(=O)(=O)c1ccccc1)C(=O)O)N[C@H]1CCN(C(=O)CCCc2ccc3c(n2)NCCC3)C1
experimentalValue: > 1000 nM

Find the measured IC50 of O=C(O)[C@@H](CO[C@@H]1CCCN(CCCCc2ccc3c(n2)NCCC3)C1)Nc1ncnc2ccccc12 with αvβ6 (Homo sapiens, UniProt P06756+P18564) as test system.
> 1000 nM

Find the measured IC50 of O=C(O)C[C@@H](CO[C@@H]1CCCN(CCCc2ccc3c(n2)NCCC3)C1)c1cccc(N2C[C@@H]3CC[C@H]2CO3)c1 with αvβ6 (Homo sapiens, UniProt P06756+P18564) as test system.
100 to 1000 nM

Find the measured IC50 of O=C(O)[C@H](CCO[C@@H]1CCCN(CCc2ccc3c(n2)NCCC3)C1)Nc1ncnc2ccccc12 with αvβ6 (Homo sapiens, UniProt P06756+P18564) as test system.
> 1000 nM

Find the measured IC50 of C[C@H]1C[C@@H](C(=O)N[C@@H](CC(=O)O)c2ccccc2)CN(CCCc2ccc3c(n2)NCCC3)C1 with αvβ6 (Homo sapiens, UniProt P06756+P18564) as test system.
100 to 1000 nM

Find the measured IC50 of O=C(O)CC(CC(=O)N[C@@H]1CCN(C(=O)CCCc2ccc3c(n2)NCCC3)C1)c1ccccc1 (some centres unmarked) with αvβ6 (Homo sapiens, UniProt P06756+P18564) as test system.
100 to 1000 nM

Find the measured IC50 of O=C(NC[C@H](NS(=O)(=O)c1ccccc1)C(=O)O)[C@@H]1CCCN(CCCc2ccc3c(n2)NCCC3)C1 with αvβ6 (Homo sapiens, UniProt P06756+P18564) as test system.
< 100 nM

Find the measured IC50 of O=C(NC[C@@H](C(=O)O)c1cccc(Br)c1)[C@@H]1CCCN(CCCc2ccc3c(n2)NCCC3)C1 with αvβ6 (Homo sapiens, UniProt P06756+P18564) as test system.
< 100 nM

Find the measured IC50 of O=C(CC[C@H](NC(=O)[C@@H]1CCCN1S(=O)(=O)c1ccccc1)C(=O)O)N[C@H]1CCN(C(=O)CCCc2ccc3c(n2)NCCC3)C1 with αvβ6 (Homo sapiens, UniProt P06756+P18564) as test system.
100 to 1000 nM

Find the measured IC50 of O=C(O)C[C@@H](CO[C@@H]1CCCN(CCCc2ccc3c(n2)NCCC3)C1)c1cccc(N2C[C@H]3CC[C@@H]2CO3)c1 with αvβ6 (Homo sapiens, UniProt P06756+P18564) as test system.
< 100 nM
